# tested.on: glucokinase (GK) enzyme (Homo sapiens, UniProt P35557)
# Sequence (P35557 whole entry, species assumed): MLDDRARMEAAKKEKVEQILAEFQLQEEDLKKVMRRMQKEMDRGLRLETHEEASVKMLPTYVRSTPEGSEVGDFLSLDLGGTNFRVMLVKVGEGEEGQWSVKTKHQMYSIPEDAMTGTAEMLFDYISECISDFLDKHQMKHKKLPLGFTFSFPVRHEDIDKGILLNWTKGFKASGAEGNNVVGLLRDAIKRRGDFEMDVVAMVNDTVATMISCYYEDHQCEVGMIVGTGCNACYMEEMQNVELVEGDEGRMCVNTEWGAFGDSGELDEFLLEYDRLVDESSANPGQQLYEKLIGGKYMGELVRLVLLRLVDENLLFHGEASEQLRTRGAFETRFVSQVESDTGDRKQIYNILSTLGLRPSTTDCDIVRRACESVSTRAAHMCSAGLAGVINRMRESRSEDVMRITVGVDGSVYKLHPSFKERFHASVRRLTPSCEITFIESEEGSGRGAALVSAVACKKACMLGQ
# method.notes: In-vitro glucokinase (GK) enzyme activation assay (coupled with glucose-6-phosphate dehydrogenase, absorbance at 340)
# Format: biochemical
# measurement.parameters: compound 5 uM; glucose 2.5 mM, ATP 1 mM; read-out: % of GK activity wrt DMSO
# activity at 5 µM >= 200% gives T, anything below gives F

Reference set, count: 5
>>> print(df.to_string())
                                   compound  class_assignment
0  COC(C)CCOc1cc(Oc2ccc(-c3nnc(C)o3)cc2)cc(C(=O)Nc2nccs2)c1 (stereo not shown)                 T
1  Cc1nnc(-c2ccc(Oc3cc(OC(C)C4CC4)cc(C(=O)Nc4nccs4)c3)cc2)o1 (stereo not shown)                 T
2  Cc1nnc(-c2ccc(Oc3cc(OCC4CC4)cc(C(=O)Nc4nccs4)c3)cc2)o1                 T
3  C=CCCOc1cc(Oc2ccc(-c3nnc(C)o3)cc2)cc(C(=O)Nc2nc(C)cs2)c1                 T
4  COCC(C)Oc1cc(Oc2cccc(-c3nnc(C)o3)c2)cc(C(=O)Nc2nccs2)c1 (stereo not shown)                 T

Attention now turns to another entry.
Reported activity at 5 µM reaches at least 200% for COCC(C)Oc1cc(Oc2ccc(-c3nnc(C4CC4)o3)cc2)cc(C(=O)Nc2nccs2)c1 (stereo not shown) ?
T

Where do the numbers come from? From patent US8450494B2.
